This collection of values is drawn from ChEMBL document CHEMBL4184333.

Tested on: Mycobacterium tuberculosis
EXPERIMENT SUMMARY: Antitubercular activity against Mycobacterium tuberculosis H37Rv ATCC 27294 using 7H9/ADC/Tween medium after 1 week in absence of guanine by broth microdilution method
Format: functional
CONDITION DESCRIPTION: H37Rv ATCC 27294, 168 h
Overview of reported MIC across a group of compounds:

Some solved entries appear below for comparison.
Req: Any idea what MIC was measured for "C[C@H](Nc1cccc(F)c1F)C(=O)Nc1ccc2oc(-c3ccc(C#N)cc3)nc2c1" ?
Resp: 1 to 3.1 µM

Req: Any idea what MIC was measured for "C[C@H](Oc1cccc(Cl)c1Cl)C(=O)Nc1ccc2oc(-c3ccc(-c4n[nH]c(=O)o4)cc3)nc2c1" ?
Resp: > 50 µM

Req: Any idea what MIC was measured for "COc1ccc(-c2nc3cc(NC(=O)[C@H](C)Oc4cccc(F)c4F)ccc3o2)cn1" ?
Resp: > 50 µM

***
Req: Any idea what MIC was measured for "COc1ccc(-c2nc3cc(NC(=S)[C@H](C)Oc4cccc(Cl)c4Cl)ccc3o2)cc1" ?
Resp: > 50 µM
